# Test system: FaDu
# ASSAY SUMMARY: Growth inhibition of human FaDu cancer stem cells incubated for 72 hrs by cell-titer Glo luminescence assay
# Assay type: functional, cell-based
READOUT LABEL: pIC50
Quick note: pIC50 means taking -log10 of the concentration in moles per liter.

Query :: Which value of pIC50 has been reported for `COc1cccnc1-c1ccc2c(c1)/C(=C/c1[nH]c(C)cc1C)C(=O)N2` in the records?
Result :: 5.60
